Tested on: OVCAR-5
Assay: NCI tumour cell line growth inhibition, 48 h
Calls of active or inactive are those of the source. Cut-off read from the data, not from the text of the source: active = GI50 up to about 1.1 µM and inactive = higher.
Items are presented alongside their recorded GI50.

compound	GI50
O=[N+]([O-])c1cccc(Nc2nc(Cl)nc(Cl)n2)c1	> 100 µM (inactive)
O=[N+]([O-])/C(C(Cl)=C(Cl)Cl)=C1\NCCO1	> 100 µM (inactive)
CCOC(=O)/C1=C(\C)N(Cc2ccccc2)C(=O)c2ccccc2C(=O)c2c(O)ccc(O)c21	> 100 µM (inactive)
Cc1nc(NC(=S)NC(=O)c2ccc(Cl)c(Cl)c2)sc1C(=O)/C=C/c1ccccc1[N+](=O)[O-]	> 10 µM (inactive)
c1ccc(-c2cs[s+]c2)cc1	> 100 µM (inactive)
COc1cccc(C2c3cc4c(cc3OC(O)(CO)C2C(=O)O)OCO4)c1.COc1cccc(C2c3cc4c(cc3OC3(O)COC(=O)C23)OCO4)c1 (stereo unspecified)	> 100 µM (inactive)
c1ccc(CSC2(SCc3ccccc3)CCCC2)cc1	> 10 µM (inactive)
[O-][n+]1onc(-c2ccccc2)c1-c1no[n+]([O-])c1-c1c(-c2ccccc2)no[n+]1[O-]	18.6 µM (inactive)
Cc1ccc(Nc2nc(-c3ccc(-c4ccc([N+](=O)[O-])cc4)o3)cs2)cc1	59 µM (inactive)
COc1cc2noc(-c3ccccc3)c2cc1OC	29.2 µM (inactive)
C[C@@H](c1ccccc1)N1CN(C(=O)OCc2ccccc2)C(C)(C)CC1=O	> 100 µM (inactive)
CC12OC1(C)C1C(=O)OCC1C2=O (stereo unspecified)	59.4 µM (inactive)
O=C(NNC(=O)c1ccc(Cl)cc1NC(=O)C12CC3CC(CC(C3)C1)C2)c1ccc(Cl)cc1	28.3 µM (inactive)
CC(C)(C)OC(=O)NCCC1CNc2ccccc21 (stereo unspecified)	> 100 µM (inactive)
O=C(NC(=O)c1c(Cl)nc2sccn12)Nc1ccc(Cl)cc1	> 100 µM (inactive)
C[C@]12CC[C@H]3[C@@H](CCC4=CC(=O)CC[C@@]43C)[C@@H]1CC[C@@H]2C(=O)COS(=O)(=O)c1ccc(Br)cc1	18.1 µM (inactive)
CO/N=C/c1c(-c2ccc(Cl)cc2)c(/C=N/OC)n2c1sc1ccccc12	> 100 µM (inactive)
Cc1oncc1/N=C1\C=C(O)C(=O)c2ccccc21	13.5 µM (inactive)
CCCCCCCCCCCCCCCCCCNc1ccn(C2OC(CO)C(OP(=O)(O)OCC3CCC(n4ccc(N)nc4=O)O3)C2O)c(=O)n1 (stereo unspecified)	57.7 µM (inactive)
Nc1ncnc2c1ncn2-c1ccc([N+](=O)[O-])cn1	> 100 µM (inactive)
COc1ccc2c(c1)CCc1cc(C(N)=O)c3nnnn3c1-2	> 100 µM (inactive)

====

System: UACC-257
Assay: NCI tumour cell line growth inhibition, 48 h
Active and inactive are the calls of the source. Cut-off read from the data, not from the text of the source: active = GI50 up to about 1.1 µM and inactive = higher.
Possible outcomes: active, inactive

compound	qualitativeLabel
CN(/N=C1\C(=O)Nc2ccccc21)c1ccccc1	inactive
N#C/N=N/c1cc(Cl)c(/N=N/C#N)cc1Cl	inactive
O=c1[nH]c(=O)n(Cc2ccccc2CO)cc1Sc1ccccc1	inactive
CCOC(=O)C(C(=O)OCC)=c1sc(=C(C(=O)OCC)C(=O)OCC)s1	inactive
S=C1SC(c2ccc(Cl)cc2)(c2ccc(Cl)cc2)c2ccccc21	inactive
C/C(=N\NC(=S)N1CCCCCC1)c1nccnc1C	active
COc1ccc(N2C(=O)C3c4[nH]c5ccccc5c4C4C(C)CCCC4C3C2=O)cc1 (configuration not stated)	inactive
O=C(/C=N/O)c1c(-c2ccccc2)[nH]c(-c2ccccc2)c1-c1ccccc1	inactive
CCCCCCCCCCCCCC(=O)NCC(OCC)OCC	inactive
C/C(=C\CO)CC/C=C(\C)CNc1ccccc1	inactive
Oc1cc(F)cc2cccnc12	active
COc1cc2c(cc1OC)C(=O)N(c1ccc(O)cc1)C2	inactive

====

Test system: MOLT-4
Experiment: NCI tumour cell line growth inhibition, 48 h
Active and inactive are the calls of the source. Cut-off read from the data, not from the text of the source: active = GI50 up to about 1.1 µM and inactive = higher. Where a SMILES comes first, the peptide text is derived from it. [ ]: non-standard residue; d: D form. The star is where a group is joined. Cbz = O=C(OCc1ccccc1)*; Aib = CC(C)(N)C(=O)O
testReadout: GI50

compound	systemUnderTest	testReadout	observedValue
COc1cc2c(cc1Cl)[n+]([O-])c(C#N)c(N1CCN(c3ccc([N+](=O)[O-])cc3)CC1)[n+]2[O-]	MOLT-4	GI50	5 µM (inactive)
O=C(O)C1CCCCN1C(=O)Cc1c[nH]c2ccccc12 (stereo unspecified)	MOLT-4	GI50	> 100 µM (inactive)
CC(C)(NC(=O)C(C)(C)NC(=O)OCc1ccccc1)C(=O)O (Cbz-[Aib]-[Aib]-OH)	MOLT-4	GI50	> 100 µM (inactive)
BC(=O)NC(CC(C)C)C(=O)NCC(=O)NC1c2ccsc2C(=O)C1O.CN(C)C (stereo unspecified)	MOLT-4	GI50	> 100 µM (inactive)
O=c1[nH]nc(Cc2ccc(Cl)cc2)n1CCO	MOLT-4	GI50	> 100 µM (inactive)
CSc1ccc2c(c1)C(N1CCN(C)CC1)Cc1ccccc1S2 (stereo unspecified)	MOLT-4	GI50	2.47 µM (inactive)
O=C1c2cc(Cl)ccc2-n2cnnc2C2CSCN12 (stereo unspecified)	MOLT-4	GI50	> 100 µM (inactive)
CC(=O)OC(OC(C)=O)n1cc(C=O)c2ccccc21	MOLT-4	GI50	> 100 µM (inactive)
CCOC(=O)C1CCCN1C(=O)c1ccccc1Cl (stereo unspecified)	MOLT-4	GI50	> 100 µM (inactive)
CN(/N=C1\C(=O)Nc2ccccc21)c1ccccc1	MOLT-4	GI50	45.2 µM (inactive)
Cc1ccc(Nc2nc(-c3ccc(-c4ccc([N+](=O)[O-])cc4)o3)cs2)cc1	MOLT-4	GI50	4.54 µM (inactive)

====

Tested on: M14
Assay: NCI tumour cell line growth inhibition, 48 h
Active and inactive are the calls of the source. Rule as the data show it: active = GI50 up to about 1.1 µM and inactive = higher.

compound	GI50
CCOC(=O)CC1(N)CC2c3ccccc3OC(=O)C2C(=O)N1 (configuration not stated)	> 100 µM (inactive)
CCOC(=O)NNC(=O)NC12CC3CC(CC(C3)C1)C2	> 100 µM (inactive)
O=C(/C(Cl)=C/c1ccccc1)c1ccccc1	2.28 µM (inactive)
CNC(=O)OCCN1c2ccccc2Sc2ccccc21	> 100 µM (inactive)
C=C1C(=O)O[C@H]2[C@H]3O[C@@H](C[C@@H]12)[C@](C)(O)CC[C@@H]1O[C@@]1(C)CCC[C@H]3C	12 µM (inactive)
CCOc1ccc(N2C(=O)C3c4[nH]c5ccccc5c4C4CCC(C(C)(C)C)CC4C3C2=O)cc1 (configuration not stated)	> 100 µM (inactive)
O=c1[nH]c(=O)c2c([nH]1)[nH]c1ccccc12	> 100 µM (inactive)
O=c1[nH]c(=O)n(C2CC(O)C(CO)O2)cc1OCC1CCCCC1 (configuration not stated)	> 100 µM (inactive)
Cn1c(=O)nc2n(CCO)c(-c3ccccc3)c(-c3ccccc3)nc-2c1=O	> 100 µM (inactive)
CCOC(=O)CNC(SC)=C(C#N)C#N	> 100 µM (inactive)
N#C/C(=C\N1CCNC1=S)C(=O)c1ccc2ccccc2c1	> 100 µM (inactive)
Nc1nc(Cl)cc(Oc2ccc(Cl)cc2)n1	> 57 µM (inactive)
CS/C(=N/S(=O)(=O)c1ccc(Cl)cc1)NCCCN/C(=N\S(=O)(=O)c1ccc(Cl)cc1)SC	15.4 µM (inactive)
Cc1oncc1/N=C1\C=C(O)C(=O)c2ccccc21	6.1 µM (inactive)
COC(=O)c1cn(CC(O)CCl)nn1 (configuration not stated)	> 100 µM (inactive)
CCCCC[C@@H]1OC(=O)[C@@]2(CC3c4ccccc4C2c2ccccc23)[C@H]1C(=O)OC	55.2 µM (inactive)
COc1ccc2nc3cc(Cl)ccc3c(Sc3ccc(N)cc3)c2c1	9.06 µM (inactive)
COC(=O)c1scc(N)c1-n1ccc(=O)[nH]c1=O	> 100 µM (inactive)
C=CCC1(C)CCCCC1(O)C[S+]([O-])c1ccccc1 (configuration not stated)	> 100 µM (inactive)
CSc1ccc2c(c1)C(N1CCN(C)CC1)Cc1ccccc1S2 (configuration not stated)	1.95 µM (inactive)
c1ccc(NN/N=N/c2ccc(-c3nc4ccccc4[nH]3)cc2)cc1	10.6 µM (inactive)
N=C(N)NS(=O)(=O)c1ccc(NC(=O)c2cccc3c(Nc4ccc(S(=O)(=O)N=C(N)N)cc4)c4ccc(Cl)cc4nc23)cc1	70.1 µM (inactive)

====

Items are presented alongside their recorded GI50.
System: OVCAR-3
Assay: NCI tumour cell line growth inhibition, 48 h
Activity calls are given as the source filed them. Cut-off read from the data, not from the text of the source: active = GI50 up to about 1.1 µM and inactive = higher.
testReadout: GI50

compound	observedValue
COc1cc(O)c(C(=O)CC(C)=O)c(OC)c1	> 100 µM (inactive)
O=S(=O)(O)c1ccc(/N=N/c2ccccc2)cc1	> 100 µM (inactive)
O=C(N/N=C1/C(=O)N(c2ccc(Cl)cc2Cl)C(=O)C(=O)C1c1nc2ccccc2o1)c1ccccc1O (stereo not given)	21.8 µM (inactive)
CC(C)(C)n1c(=O)[nH]c(=O)n1C(C)(C)C	> 100 µM (inactive)
CCc1cccc(C(C)CC)c1NC(=O)C(=O)C(CC(=O)Nc1ccc(Cl)c(Cl)c1)C(=O)OC (stereo not given)	> 100 µM (inactive)
CC(=O)N/N=C1/CC[C@@]2(C)C(=CC[C@H]3C4CCC(C(C)CCCC(C)C)[C@@]4(C)CCC32)C1(C)C (stereo not given in full)	74.8 µM (inactive)
O=C(N/N=C\C=C\c1ccc([N+](=O)[O-])o1)C(=O)N/N=C\C=C\c1ccc([N+](=O)[O-])o1	24.1 µM (inactive)
COc1cc(O)c(C(=O)/C=C/c2ccc(O)cc2)cc1Oc1ccc(/C=C/C(=O)c2ccc(O)cc2O)cc1	8.07 µM (inactive)
[C-]#[N+]C1(C(=O)OCC)CC1	> 100 µM (inactive)
O=C(/C(Cl)=C/c1ccccc1)c1ccccc1	2.21 µM (inactive)
